These measurements were taken from the METLIN SMRT retention time set (Domingo-Almenara et al. 2019).

protocol: gradient 5% acetonitrile 3 min, to 50% in 2 min, to 85% in 15 min, held 3 min, 100 µL/min
assay_conditions: column: Zorbax Extend-C18 2.1 x 50 mm; eluents: water / acetonitrile, 0.1% formic acid
metric: RP-LC retention time (s)

CCN(CC)CCNC(=O)c1ccc2cnn(Cc3ccc(F)cc3)c2c1: 650
COc1ccc(NC(=O)N(C)CCc2noc(COc3ccc(F)cc3)n2)cc1OC: 801
COc1cccc(Nc2n[nH]nc2C(=O)Nc2ccccc2Br)c1: 1060
COc1cc(OC)cc(-c2nc(C3CC(=O)N(c4ccc(C)cc4)C3)no2)c1 (centres undefined): 1010
CCCn1cc(S(=O)(=O)Nc2cccc(OC)c2)c2cccnc21: 840
Fc1cc(F)c2c(c1)C1C=CCC1C(c1cccnc1)N2 (centres undefined): 706
CN(Cc1nc2cc(C(=O)N3CCCC3)ccc2n1C)C(=O)Nc1ccccc1Br: 644
CCCNC(=O)C1CC(=O)N(CCc2c[nH]c3ccc(Cl)cc23)C1 (centres undefined): 708
Cc1ccc(-c2noc(Cn3ccn(-c4cc(C)ccc4C)c(=O)c3=O)n2)cc1: 950
Cc1ccc(NS(=O)(=O)c2cc(-c3[nH]ncc3C(=O)N3CCCC3)oc2C)cc1C: 776
CC(=O)N1CCC2(CC1)OC(=O)C(C)=C2C(=O)NCCC1=CCCCC1: 738
O=C(NCc1ccc(F)cc1)C1CCN(c2cnc3nccnc3c2)CC1: 769
CCc1nc2c(NC(=O)c3ccccc3Br)cccn2n1: 773
CC1=C(c2ccccc2)S(=O)(=O)N=C1N1CCC(NC(=O)CCC(C)C)CC1: 857
